I'd appreciate it if you could supply thermal shift delta Tm values for the items below.
# Test system: LOC_OS04G41100-cb001
# Sequence (whole entry): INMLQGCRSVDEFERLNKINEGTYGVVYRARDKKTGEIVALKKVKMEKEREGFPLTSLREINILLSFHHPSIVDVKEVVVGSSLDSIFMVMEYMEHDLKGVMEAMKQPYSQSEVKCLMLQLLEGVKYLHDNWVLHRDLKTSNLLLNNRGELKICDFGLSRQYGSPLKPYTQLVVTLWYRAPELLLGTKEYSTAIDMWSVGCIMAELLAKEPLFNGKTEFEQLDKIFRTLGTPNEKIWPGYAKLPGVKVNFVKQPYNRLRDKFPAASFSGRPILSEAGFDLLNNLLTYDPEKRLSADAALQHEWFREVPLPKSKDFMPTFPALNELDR
# Experimental details: thermal shift delta Tm vs DMSO control; higher = stronger stabilization (binding);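 also: purified Escherichia coli-expressed rice kinase domain construct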
# Cond: 12.5 µM; protein concentration 2 µM
The reply should be a number in °C, with the unit left off.

Asked: Could you tell me which thermal shift delta Tm is on file for CC(C)NC[C@@H](C(=O)N1CCN(c2ncnc3c2[C@H](C)C[C@H]3O)CC1)c1ccc(Cl)cc1 [Ipatasertib (GDC-0068)] ?
Given back: 0.07

Asked: Request: CN1CCN(Cc2ccc(NC(=O)Nc3ccc(Oc4ccnc(N)n4)cc3)cc2C(F)(F)F)CC1
Given back: 6.72

Asked: Request: CCC(=O)Nc1cccc(Oc2nc(Nc3ccc(N4CCN(C)CC4)cc3OC)ncc2Cl)c1
Given back: 0.39

Asked: Request: CC1=C(C(=O)Nc2ccc3[nH]ncc3c2)C(c2ccc(F)cc2)NC(=O)N1 (stereo unspecified)
Given back: 0.33

Asked: Request: Cc1ccc(C(=O)Nc2ccc(CN3CCN(C)CC3)c(C(F)(F)F)c2)cc1C#Cc1cnc2[nH]ncc2c1 [GZD824 Dimesylate]
Given back: 2.67

Asked: Request: Cc1cc(CN2CCN(c3c(Br)cnc4nc(-c5ccc(N6CCN(C)CC6)cc5)[nH]c34)CC2)no1
Given back: 0.48

Asked: Request: COc1ccc(-c2ccc3c(N4CCOCC4)nc(N4C[C@@H](C)O[C@@H](C)C4)nc3n2)cc1CO
Given back: 0.27

Asked: Request: O=C(NC(NC(=S)Nc1ccc(F)c([N+](=O)[O-])c1)C(Cl)(Cl)Cl)C(c1ccccc1)c1ccccc1 (stereo unspecified)
Given back: 0.88

Asked: Request: C=C(C)[C@@H]1CC[C@]2(C)CC[C@]3(C)[C@H](CC[C@@H]4[C@@]5(C)CC[C@H](O)C(C)(C)[C@@H]5CC[C@]43C)[C@@H]12 [Lupeol]
Given back: 0.47

Asked: Request: COc1ccc([C@@H]2OC[C@H]3[C@@H]2CO[C@@H]3c2ccc(O[C@@H]3O[C@H](CO)[C@@H](O)[C@H](O)[C@H]3O)c(OC)c2)cc1OC [Forsythin]
Given back: -0.14

Asked: Request: CN1CCN(c2cccc(Nc3nc4c(-c5ccc(S(C)(=O)=O)cc5)cccn4n3)c2)CC1
Given back: 0.46

Asked: Request: O=C(O)c1ccc2c(c1)nc(Nc1cccc(Cl)c1)c1ccncc12 [Silmitasertib (CX-4945)]
Given back: 0.77

Asked: Request: NC[C@@](O)(c1ccc(Cl)cc1)c1ccc(-c2cn[nH]c2)cc1
Given back: 0.81

Asked: Request: Cc1cc(Nc2cc(CN3CCOCC3)c3nc(C)c(Cc4ccc(Cl)cc4F)n3n2)n[nH]1
Given back: 3.22

Asked: Request: C[C@@H](N)[C@H]1CC[C@H](C(=O)Nc2ccncc2)CC1
Given back: 0.81

Asked: Request: CC(C)(C)c1cc(NC(=O)Nc2ccc(Oc3ccnc4[nH]c(=O)cnc34)cc2F)n(-c2ccccc2)n1
Given back: 7.51

* * *

# System: LOC_OS04G57630-cb004
# Experimental details: thermal shift delta Tm vs DMSO control; higher = stronger stabilization (binding)
# Cond: 12.5 µM; protein concentration 2 µM
Counter-ions that a name gives are not always drawn.
I'd appreciate it if you could supply thermal shift delta Tm values for the items below.
The reply should be a number in °C, with the unit left off.

Asked: Could you tell me which thermal shift delta Tm is on file for CCCCCCCCc1ccc(CCC(N)(CO)CO)cc1 [Fingolimod (FTY720) HCl] ?
Given back: -0.4

Asked: Request: Cc1nc(-c2cn3c(n2)-c2ccc(-c4cnn(C(C)(C)C(N)=O)c4)cc2OCC3)n(C(C)C)n1
Given back: 0.16

Asked: Request: COc1cc2ccc(=O)oc2cc1O
Given back: -0.06

Asked: Request: CN1CCN(c2ccc3nc(-c4c(N)c5c(F)cccc5[nH]c4=O)[nH]c3c2)CC1 [Dovitinib (TKI-258, CHIR-258)]
Given back: 1.24

Asked: Request: COc1cc(Nc2ncc3c(n2)-c2ccc(Cl)cc2C(c2c(F)cccc2OC)=NC3)ccc1C(=O)O
Given back: -0.1

Asked: Request: CCN1/C(=C/C(C)=O)Sc2ccc(OC)cc21
Given back: -0.02

Asked: Request: CCOC(=O)c1cnc2ccc(-c3cncc(NS(=O)(=O)c4ccccc4)c3)cn12
Given back: 0.28

Asked: Request: CC(C)(C)NS(=O)(=O)c1cncc(-c2cc(F)c3nc(N)nn3c2)c1
Given back: 0.3

Asked: Request: O=C(c1ccc(/C=C/c2n[nH]c3ccccc23)cc1)N1CCNCC1
Given back: 3.95

Asked: Request: O=C(Nc1ccccc1C(=O)NC1CCCCNC1=O)c1cc2ccccc2s1 (stereo unspecified)
Given back: 0.09

Asked: Request: O=C(NCc1ccccc1)c1csc(Nc2ccncn2)n1
Given back: 0.16

Asked: Request: CS(=O)(=O)N1CCN(Cc2cc3nc(-c4cccc5[nH]ncc45)nc(N4CCOCC4)c3s2)CC1
Given back: -0.38

Asked: Request: Nc1cccc(S(=O)(=O)N2CCCN(S(=O)(=O)c3ccc4c(c3)OCCO4)CC2)c1
Given back: -0.1

Asked: Request: COc1ccc(C(=O)Nc2sc3c(c2C(N)=O)CCCC3)cc1OC
Given back: 0.24

Asked: Request: CN1CCC(Nc2nc(Nc3ccc(Oc4ccccc4)cc3)c3c(=O)[nH]cc(Br)c3n2)CC1
Given back: 1.8

Asked: Request: CCC(=O)Nc1cccc(Oc2nc(Nc3ccc(N4CCN(C)CC4)cc3OC)ncc2Cl)c1
Given back: 0.17

Asked: Request: CS(=O)(=O)c1cccc(CNc2nc(Nc3ccc4c(c3)CCC(=O)N4)ncc2C(F)(F)F)c1
Given back: 1.7

Asked: Request: CCCCNc1ncc(C(=O)NCc2ccc(-n3ccnc3)cc2)c(NC2CCC(O)CC2)n1 (stereo unspecified)
Given back: 3.08

Asked: Request: COc1ccc(-c2nc(N3CCOCC3)c3sc(CN(C)c4ncc(C(=O)NO)cn4)cc3n2)cn1
Given back: 0

Asked: Request: CCS(=O)(=O)c1cccc(-c2cc(C(=O)NC3CCN(C)CC3)c(C)c3[nH]c4ncc(C)cc4c23)c1
Given back: 2.61

Asked: Request: COc1cc(C(=O)N2CCC(N3CCN(C)CC3)CC2)ccc1Nc1ncc2c(n1)N(C)c1ccccc1C(=O)N2C
Given back: 0.47

Asked: Request: C[C@@H]1COC(Nc2ccc3ncnc(Nc4ccc(OCc5nccs5)c(Cl)c4)c3c2)=N1
Given back: 1.38

Asked: Request: Cc1c(C(=O)N2CCOc3ccc(-c4ccc(N)nc4)cc3C2)ccc(S(C)(=O)=O)c1F
Given back: 0.14

Asked: Request: CC(C)(C)NC(=O)c1cncn1C1CCN(c2ccc(-c3nnc(C(F)(F)F)o3)cn2)CC1
Given back: -0.11

Asked: Request: CC(C)c1cnn2c(NCc3ccccc3-n3cccn3)nc(OC3CCCNC3)nc12 (stereo unspecified)
Given back: 0.19

Asked: Request: CO[C@@H](C(=O)N1Cc2[nH]nc(NC(=O)c3ccc(N4CCN(C)CC4)cc3)c2C1)c1ccccc1
Given back: 2.02

Asked: Request: O=C(Nc1cnn2ccc(N3CCC[C@@H]3c3cc(F)ccc3F)nc12)N1CC[C@H](O)C1 [Larotrectinib (LOXO-101) sulfate]
Given back: -0.61

Asked: Request: C[C@@H](NC(=O)c1ncnc(N)c1Cl)c1ncc(C(=O)Nc2cc(C(F)(F)F)c(Cl)cn2)s1
Given back: 0.51

Asked: Request: Cc1cc(Nc2nc(N[C@@H](C)c3ncc(F)cn3)ncc2Cl)[nH]n1
Given back: 0.37

Asked: Request: O=S(=O)(NCCNC/C=C/c1ccc(Br)cc1)c1cccc2cnccc12
Given back: -0.1

Asked: Request: O=C(O)c1ccc(Nc2ncc3c(n2)-c2ccc(Cl)cc2C(c2c(F)cccc2F)=NC3)cc1
Given back: -0.29

Asked: Request: CC1=C(C(=O)Nc2cc3cn[nH]c3cc2F)C(c2ccc(C(F)(F)F)cc2)CC(=O)N1 (stereo unspecified)
Given back: -0.15

Asked: Request: Cc1cnc(Nc2ccc(N3CCN(C)CC3)cc2)nc1Nc1cccc(S(=O)(=O)NC(C)(C)C)c1
Given back: 2.45

Asked: Request: Cc1[nH]c(/C=C2\C(=O)Nc3ccc(S(=O)(=O)N(C)c4cccc(Cl)c4)cc32)c(C)c1C(=O)N1CCN(C)CC1
Given back: 0.72

Asked: Request: Cn1cc(-c2ccc3nnc(C(F)(F)c4ccc5ncccc5c4)n3n2)cn1
Given back: 0.16

Asked: Request: CC(C)c1cnn2c(NCc3ccccc3)cc(NCCCCCCN)nc12
Given back: -0.33
